Numbers sourced from patent US5543415A.

# Tested on: clonidine-induced aggressive behavior
# experimental_details: Effect on Clonidine-Induced Aggressive Behavior (number of biting attacks during 30 minutes)
# Format: in vivo, male ddY mice
# experimental_setup: Mus musculus; 10 mg/kg, po; read-out: Number of the Attacks of Test Compound-Treated Group/Number of the Attacks of Control Group
Task for the reader: assign each of the following molecules its reported response vs control in vivo at 10 mg/kg.
Give a bare numeral; the unit % is implied.

Reported response vs control in vivo at 10 mg/kg of "CCn1c(=O)c2c(nc(/C=C/c3ccc(OC)cc3OC)n2C)n(CC)c1=O" : 610

Entry "CCn1c(=O)c2c(nc(/C=C/c3cc(OC)cc(OC)c3)n2C)n(CC)c1=O" ; response vs control in vivo at 10 mg/kg = 480

# response vs control in vivo at 10 mg/kg (molecule: "CCCn1c(=O)c2c(nc(/C=C/c3ccc(OC)c(OC)c3OC)n2C)n(CCC)c1=O" ) is 680

// sample "C=CCn1c(=O)c2c(nc(/C=C/c3ccc(OC)c(OC)c3)n2C)n(CC=C)c1=O" , its response vs control in vivo at 10 mg/kg was 790

###

# Test system: ddY-strain male mice
# experimental_details: Acute Toxicity Test (minimum lethal dose, oral)
# Assay type: in vivo
# experimental_setup: seven days after administration
Exercise: for every item that follows, state its recorded MLD (minimum lethal dose).

The compound listed as "CCn1c(=O)c2c(nc(/C=C/c3cccc(F)c3C)n2C)n(CC)c1=O" shows MLD (minimum lethal dose) equal to > 100 mg/kg

Lab note: measured MLD (minimum lethal dose) of "CCCCOc1ccc(/C=C/c2nc3c(c(=O)n(CC)c(=O)n3CC)n2C)cc1" was > 100 mg/kg

Query CCCn1c(=O)c2c(nc(/C=C\c3ccc(OC)c(OC)c3)n2C)n(CCC)c1=O [Compound 65] yields MLD (minimum lethal dose) of > 300 mg/kg

Reported MLD (minimum lethal dose) for "CCn1c(=O)c2[nH]c(/C=C/c3ccc(OCOC)cc3)nc2n(CC)c1=O" was > 100 mg/kg

For this compound ( "CCn1c(=O)c2[nH]c(/C=C/c3ccc(OC)c(C)c3C)nc2n(CC)c1=O" ), measured MLD (minimum lethal dose) is > 300 mg/kg

Noted for "C=CCn1c(=O)c2c(nc(/C=C/c3cc(OC)c(OC)c(OC)c3)n2C)n(CC=C)c1=O" : its MLD (minimum lethal dose) reads > 300 mg/kg

Entry "CCn1c(=O)c2[nH]c(/C=C/c3cccc(OC)c3[N+](=O)[O-])nc2n(CC)c1=O" ; MLD (minimum lethal dose) = > 300 mg/kg

Looking up "CCCn1c(=O)c2c(nc(/C=C/c3ccccc3Cl)n2C)n(CCC)c1=O" , I found its MLD (minimum lethal dose) recorded as > 100 mg/kg

Measured MLD (minimum lethal dose) of "CCn1c(=O)c2[nH]c(/C=C/c3cccc(F)c3C)nc2n(CC)c1=O" : > 100 mg/kg

Noted for "CCCOc1ccc(/C=C/c2nc3c(c(=O)n(CCC)c(=O)n3CCC)n2C)cc1" : its MLD (minimum lethal dose) reads > 300 mg/kg

Lab note: measured MLD (minimum lethal dose) of "CCCn1c(=O)c2c(nc(/C=C/c3ccc(OC)cc3)n2C)n(CCC)c1=O" was > 300 mg/kg

get_value(item= "CCn1c(=O)c2c(nc(/C=C/c3ccc(F)c(F)c3)n2C)n(CC)c1=O" , readout=MLD (minimum lethal dose)) returns > 300 mg/kg

// recorded MLD (minimum lethal dose) for "COc1ccc(/C=C/c2nc3c([nH]2)c(=O)n(C)c(=O)n3C)c(OC)c1C" : > 100 mg/kg

MLD (minimum lethal dose) reading for "CCn1c(=O)c2c(nc(/C=C/c3ccc(OC)c(OC)c3Cl)n2C)n(CC)c1=O" : > 300 mg/kg

Sample COc1cccc(/C=C/c2nc3c(=O)n(C)c(=O)n(C)c3[nH]2)c1OC [Compound 97, (E)-8-(2,3-Dimethoxystyryl)theophylline] ; MLD (minimum lethal dose) observed: > 100 mg/kg

Notebook: "CCn1c(=O)c2c(nc(/C=C/c3ccc(OCC(=O)O)cc3)n2C)n(CC)c1=O" , MLD (minimum lethal dose) read as > 100 mg/kg

Lab note: "CCn1c(=O)c2c(nc(/C=C/c3ccc(F)c(Cl)c3)n2C)n(CC)c1=O" gave MLD (minimum lethal dose) of > 100 mg/kg

What the record says about "CCn1c(=O)c2[nH]c(/C=C/c3ccc4c(c3)OCO4)nc2n(CC)c1=O" : MLD (minimum lethal dose) is > 300 mg/kg

Just so you know, measured MLD (minimum lethal dose) for "CCn1c(=O)c2[nH]c(/C=C/c3ccc(N(C)C)cc3)nc2n(CC)c1=O" came out at > 100 mg/kg

// MLD (minimum lethal dose) lookup, compound = "CCn1c(=O)c2[nH]c(/C=C/c3cc(OC)c(OC)cc3[N+](=O)[O-])nc2n(CC)c1=O" , result: > 100 mg/kg

Entry "CCn1c(=O)c2c(nc(/C=C/c3cc(OC)c(OC)cc3[N+](=O)[O-])n2C)n(CC)c1=O" ; MLD (minimum lethal dose) = > 300 mg/kg

Entry under test: "CCCn1c(=O)c2c(nc(/C=C/c3cccc(OC)c3OC)n2C)n(CCC)c1=O" . Its MLD (minimum lethal dose) was > 300 mg/kg

Note to self: MLD (minimum lethal dose) recorded for "CCCn1c(=O)c2[nH]c(/C=C/c3cc(C)c(OC)cc3C)nc2n(CCC)c1=O" was > 300 mg/kg

# compound "CCn1c(=O)c2c(nc(/C=C/c3ccc(OCOC)cc3)n2C)n(CC)c1=O" ; its MLD (minimum lethal dose) = > 100 mg/kg

Lab note: "CCCn1c(=O)c2[nH]c(/C=C/c3cccc(OC)c3OC)nc2n(CCC)c1=O" gave MLD (minimum lethal dose) of > 100 mg/kg

The reported value for "CCn1c(=O)c2[nH]c(/C=C/c3cc(C)c(OC)cc3C)nc2n(CC)c1=O" in terms of MLD (minimum lethal dose) is > 300 mg/kg

// recorded MLD (minimum lethal dose) for "CCCn1c(=O)c2[nH]c(/C=C/c3ccccc3Cl)nc2n(CCC)c1=O" : > 100 mg/kg

Looking up "CCCn1c(=O)c2c(nc(/C=C/c3ccc(OC)c(C)c3OC)n2C)n(CCC)c1=O" , I found its MLD (minimum lethal dose) recorded as > 300 mg/kg

The compound listed as "CCCn1c(=O)c2[nH]c(/C=C/c3ccc(OC)c(C)c3OC)nc2n(CCC)c1=O" has a reported MLD (minimum lethal dose) of > 100 mg/kg

For record "COc1ccc(/C=C/c2nc3c(c(=O)n(C)c(=O)n3C)n2C)c(Cl)c1OC" the listed MLD (minimum lethal dose) is > 300 mg/kg

Record "CCn1c(=O)c2[nH]c(/C=C/c3ccc(C(F)(F)F)cc3)nc2n(CC)c1=O" . Reported MLD (minimum lethal dose): > 100 mg/kg

Field MLD (minimum lethal dose) (entry "COc1ccc(/C=C/c2nc3c([nH]2)c(=O)n(C)c(=O)n3C)cc1Br" ) reads > 100 mg/kg

get_value(item= "CCn1c(=O)c2c(nc(/C=C/c3ccc(OCCCCBr)cc3)n2C)n(CC)c1=O" , readout=MLD (minimum lethal dose)) returns > 100 mg/kg
